B1: HDV Ribozyme (parent)
chain: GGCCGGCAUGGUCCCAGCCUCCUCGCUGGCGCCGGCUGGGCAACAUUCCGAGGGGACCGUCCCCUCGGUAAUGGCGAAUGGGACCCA

Variants of: B1
method: self-cleavage, relative activity (ratio to wild type); higher = more cleavage; co-transcriptional
Overview of reported self-cleavage across a group of variants:
Note: the reply should be a number with no unit written.

mutationName: G76A G80U
self-cleavage: 0.441

mutationName: G74A G80C
self-cleavage: 0.167

mutationName: A56C U69G
self-cleavage: 0.987

mutationName: C15U G73U
self-cleavage: 0.269

mutationName: U46C G80U
self-cleavage: 0.0903

mutationName: G25A G39U
self-cleavage: 0.0244

mutationName: A16C G76A
self-cleavage: 1.08

mutationName: A16G U37C
self-cleavage: 0.997

mutationName: C14U A71C
self-cleavage: 0.831

mutationName: U27C C86U
self-cleavage: 0.745

Given the variant U20G C44A , what is its reported self-cleavage? 0.262

Another variant to check: G38C A70C 0.291

Another variant to check: U23A U79A 0.646

Another variant to check: U20A U72A 0.107

Another variant to check: G54U G73U 0.364
